Biological target: human SOS1 (nucleotide exchange of K-Ras^G12C) (Homo sapiens)
Test: Biochemical assay 2: K-Ras^G12C activation assay by hSOS1 at high GTP concentration (HTRF)
Conditions: high GTP; read-out: Assay 2 (KRAS-Activation by SOS high GTP) activity expressed as IC50
The entries below are paired with their reported IC50.
measurement type: IC50

INSERT INTO assay_data (compound, result) VALUES
  ('COc1cc2nc(C)nc(NC(C)c3ccc(-c4ccccc4CNCC(F)(F)F)s3)c2cc1OC (stereo not shown) [Example 300]', '3070 nM'),
  ('COc1cc2nc(C)nc(NC(C)c3cc(F)cc4[nH]ncc34)c2cc1OC (stereo not shown) [Example 6]', '1860 nM'),
  ('COc1cc2nc(C)nc(NC(C)c3ccc(-c4ccccc4CN4CC(F)C4)s3)c2cc1OC (stereo not shown) [Example 322]', '247 nM'),
  ('COc1cc2nc(C)nc(NC(C)c3ccnc4sccc34)c2cc1OC (stereo not shown) [Example 331]', '992 nM');

====

The entries below are paired with their reported pIC50.
Target: human SOS1 (nucleotide exchange of K-Ras^G12C) (Homo sapiens)
Test: Biochemical assay 2: K-Ras^G12C activation assay by hSOS1 at high GTP concentration (HTRF)
Conditions: high GTP; read-out: Assay 2 (KRAS-Activation by SOS high GTP) activity expressed as IC50
pIC50: −log10 of the molar value.
measurement type: pIC50

INSERT INTO results (compound, quantitative_readout) VALUES
  ('COc1cc2nc(C)nc(N[C@H](C)c3cccc(-c4ccc(N5CCOCC5)cc4)c3)c2cc1OC [Example 79]', 6.03),
  ('COc1cc2nc(C)nc(N[C@H](C)c3cccc(-c4cccc(S(C)(=O)=O)c4)c3)c2cc1OC [Example 112]', 6.02),
  ('COc1cc2nc(C)nc(N[C@H](C)c3ccc(-c4ccccc4)cc3)c2cc1OC [Example 196]', 5.96),
  ('COc1cc2nc(C)nc(N[C@@H](C)c3ccc(-c4ccc(S(C)(=O)=O)cc4)s3)c2cc1OC (racemic) [Example 149]', 5.37),
  ('COc1cc2nc(C)nc(NC(C)c3ccc(-c4ccccc4CN4CC(O)C4)s3)c2cc1OC (centres unmarked) [Example 312]', 7.18),
  ('COc1cc2nc(C)nc(N[C@@H](C)c3ccc(-c4ccccc4C(=O)N(C)C)s3)c2cc1OC (racemic) [Example 48]', 5.49),
  ('COc1cc2nc(C)nc(NC(C)c3ccc4c(c3)NC(=O)CO4)c2cc1OC (centres unmarked) [Example 34]', 5.43),
  ('COc1cc2nc(C)nc(NC(C)c3ccc(-c4ccccc4CN4CC(N(C)C)C4)s3)c2cc1OC (centres unmarked) [Example 319]', 6.92);

====

Target: K-Ras^G12C : hSOS1 interaction (Homo sapiens, UniProt Q07889)
Assay: Biochemical assay 1: K-Ras^G12C interaction assay with hSOS1 (HTRF)
Type: binding
Settings: read-out: Assay 1 (KRAS-SOS Interaction) activity expressed as IC50
pIC50: −log10 of the molar value.
Each entry gets not met if its pIC50 stays under 6, and met if its pIC50 is 6 or above.

INSERT INTO results (compound, subject_of_test, answer_label) VALUES
  ('COc1cc2nc(C)nc(N[C@H](C)c3cccc(-c4cccc(/C=C/C#N)c4)c3)c2cc1OC', 'K-Ras^G12C : hSOS1 interaction (Homo sapiens, UniProt Q07889)', 'not met'),
  ('COc1cc2nc(C)nc(N[C@H](C)c3cccc(C(N)=O)c3)c2cc1OC', 'K-Ras^G12C : hSOS1 interaction (Homo sapiens, UniProt Q07889)', 'not met'),
  ('COc1cc2nc(C)nc(NC(C)c3ccc(-c4ccccc4-c4cn[nH]c4)s3)c2cc1OC (stereo not drawn)', 'K-Ras^G12C : hSOS1 interaction (Homo sapiens, UniProt Q07889)', 'not met'),
  ('COc1cc2nc(C)nc(NC(C)c3ccc(-c4ccc(F)c5ccccc45)s3)c2cc1OC (stereo not drawn)', 'K-Ras^G12C : hSOS1 interaction (Homo sapiens, UniProt Q07889)', 'not met'),
  ('COc1cc2nc(C)nc(NC(C)c3ccc(-c4ccc(Cl)cc4CN(C)C)s3)c2cc1OC (stereo not drawn)', 'K-Ras^G12C : hSOS1 interaction (Homo sapiens, UniProt Q07889)', 'met'),
  ('CCCOc1ccc(Cl)cc1-c1cccc([C@@H](C)Nc2nc(C)nc3cc(OC)c(OC)cc23)c1', 'K-Ras^G12C : hSOS1 interaction (Homo sapiens, UniProt Q07889)', 'not met'),
  ('COc1cc2nc(C)nc(N[C@H](C)c3cccc(-c4ccc(F)cc4CN)c3)c2cc1OC', 'K-Ras^G12C : hSOS1 interaction (Homo sapiens, UniProt Q07889)', 'met'),
  ('COc1cc2nc(C)nc(N[C@@H](C)c3ccc(-c4ccccc4NC(C)=O)s3)c2cc1OC (racemic)', 'K-Ras^G12C : hSOS1 interaction (Homo sapiens, UniProt Q07889)', 'not met'),
  ('COc1cc2nc(C)nc(NC(C)c3cccc4c3CCCC4)c2cc1OC (stereo not drawn)', 'K-Ras^G12C : hSOS1 interaction (Homo sapiens, UniProt Q07889)', 'met'),
  ('COc1cc2nc(C)nc(N[C@H](C)c3cccc(-c4ccccc4Oc4ccccc4)c3)c2cc1OC', 'K-Ras^G12C : hSOS1 interaction (Homo sapiens, UniProt Q07889)', 'not met'),
  ('COc1cc2nc(C)nc(NC(C)c3cc(-c4cnc5n4CCC5)cs3)c2cc1OC (stereo not drawn)', 'K-Ras^G12C : hSOS1 interaction (Homo sapiens, UniProt Q07889)', 'not met'),
  ('COc1ncc(-c2cccc([C@@H](C)Nc3nc(C)nc4cc(OC)c(OC)cc34)c2)cn1', 'K-Ras^G12C : hSOS1 interaction (Homo sapiens, UniProt Q07889)', 'not met'),
  ('COc1cc2nc(C)nc(N[C@H](C)c3ccc(C4CC4)cc3)c2cc1OC', 'K-Ras^G12C : hSOS1 interaction (Homo sapiens, UniProt Q07889)', 'met'),
  ('COc1cc2nc(C)nc(NC(C)c3cccc4ccoc34)c2cc1OC (stereo not drawn)', 'K-Ras^G12C : hSOS1 interaction (Homo sapiens, UniProt Q07889)', 'met'),
  ('COc1cc2nc(C)nc(NC(C)c3cccc(-c4nn[nH]n4)c3)c2cc1OC (stereo not drawn)', 'K-Ras^G12C : hSOS1 interaction (Homo sapiens, UniProt Q07889)', 'not met'),
  ('COc1cc2nc(C)nc(NC(C)c3cc(F)cc4[nH]ncc34)c2cc1OC (stereo not drawn)', 'K-Ras^G12C : hSOS1 interaction (Homo sapiens, UniProt Q07889)', 'not met'),
  ('CCC/C=C/c1ccc([C@H](C)Nc2nc(C)nc3cc(OC)c(OC)cc23)s1 (racemic)', 'K-Ras^G12C : hSOS1 interaction (Homo sapiens, UniProt Q07889)', 'not met'),
  ('COc1cc2nc(C)nc(N[C@H](C)c3cccc(-c4ccc(C(=O)NCCN(C)C)cc4)c3)c2cc1OC', 'K-Ras^G12C : hSOS1 interaction (Homo sapiens, UniProt Q07889)', 'met'),
  ('COc1cc2nc(C)nc(NC(C)c3ccc(-c4ccccc4)o3)c2cc1OC (stereo not drawn) [Example 213]', 'K-Ras^G12C : hSOS1 interaction (Homo sapiens, UniProt Q07889)', 'not met'),
  ('COc1cc2nc(C)nc(NC(C)c3ccc(-c4cccc5cn[nH]c45)s3)c2cc1OC (stereo not drawn)', 'K-Ras^G12C : hSOS1 interaction (Homo sapiens, UniProt Q07889)', 'not met'),
  ('COc1cc2nc(C)nc(NC(C)c3ccc(-c4ccccc4[C@@H](C)N)s3)c2cc1OC (stereo in doubt)', 'K-Ras^G12C : hSOS1 interaction (Homo sapiens, UniProt Q07889)', 'met'),
  ('COc1cc2nc(C)nc(NC(C)c3ccc(-c4ccccc4CN4CC[C@H](F)C4)s3)c2cc1OC (stereo partly drawn)', 'K-Ras^G12C : hSOS1 interaction (Homo sapiens, UniProt Q07889)', 'met'),
  ('COc1cc2nc(C)nc(NC(C)c3cc(-c4ccn(CCN5CCCC5)n4)cs3)c2cc1OC (stereo not drawn)', 'K-Ras^G12C : hSOS1 interaction (Homo sapiens, UniProt Q07889)', 'not met'),
  ('COc1cc2nc(C)nc(NC(C)c3cc(C)c(Br)s3)c2cc1OC (stereo not drawn)', 'K-Ras^G12C : hSOS1 interaction (Homo sapiens, UniProt Q07889)', 'not met'),
  ('COc1cc2nc(C)nc(NC(C)c3ccc(-c4ccccc4CN4CCN(C)CC4)s3)c2cc1OC (stereo not drawn)', 'K-Ras^G12C : hSOS1 interaction (Homo sapiens, UniProt Q07889)', 'met'),
  ('COc1cc2nc(C)nc(NC(C)c3ccc(-c4ccccc4CN(C)C)s3)c2cc1OC (stereo not drawn)', 'K-Ras^G12C : hSOS1 interaction (Homo sapiens, UniProt Q07889)', 'met'),
  ('COc1cc2nc(C)nc(N[C@H](C)c3cccc(-c4cccc(NS(C)(=O)=O)c4)c3)c2cc1OC', 'K-Ras^G12C : hSOS1 interaction (Homo sapiens, UniProt Q07889)', 'met'),
  ('COc1cc2nc(C)nc(NC(C)c3ccc(-c4ccccc4CCO)s3)c2cc1OC (stereo not drawn)', 'K-Ras^G12C : hSOS1 interaction (Homo sapiens, UniProt Q07889)', 'met'),
  ('COc1cc2nc(C)nc(N[C@H](C)c3ccc(F)cc3)c2cc1OC', 'K-Ras^G12C : hSOS1 interaction (Homo sapiens, UniProt Q07889)', 'met'),
  ('Cc1nc(N[C@H](C)c2cccc(Cl)c2)c2cc(Br)ccc2n1', 'K-Ras^G12C : hSOS1 interaction (Homo sapiens, UniProt Q07889)', 'not met');

meta.source: patent US20240083857A1
